Ref: the nanobody polyreactivity screen of Harvey et al. (2022)

assay_notes: yeast display, Sf9 membrane polyspecificity reagent, FACS + sequencing; frameworks hold sequencing errors
readout_name: polyreactivity (PSR sort gate)

QVQLVESGGGLVQAGGSLRLSCAASGRIFRYYAMGWYRQAPGKDRELVAAIRSASSTYYADSVKGRFTISRDNAKNTVYVQMNSLKPEDTAVSYCAARLYGVYKRRYYYWGQGTQVTVSS :: high polyreactivity
QVQLVESGGGLDQAVGSLRLSSAASGTTFDKNDMGLYRQAPAKERELVAAISGGSTNYADSVKGRFTISRDNAKNTVYLQMNSLKPEDTAVYYCAARPHAHSDYWGQGTQVTVSS :: low polyreactivity
QVQLVESGGGLGQAGGSLRLSCAASGSIFSSYAMGWYRQAPGKERELVAAISQSGGDTYYADSVKGRFTISRDNAKNTVYLQMNSLKPEDTAVYYSAASVWYYPMDYWGQGTQVTVSS :: low polyreactivity
QVQLVESGGGLVQAGGSLRLSCAASGRTFTRYAMGWYRQAPGKERELVAAISWSGGSTYYADSVKGRFTISRDNAKNSVYLQMNSLKPEDTAVYYCNAYYYYPEFNYWGLGTQVTVSS :: high polyreactivity

Prompt: Which polyreactivity (PSR sort gate) is reported for this sequence? `QVQLVESGGGLVQAGGSLRLSCAASGSTFYLYTMGWYRQAPGKERELVAAINRSGGRTYYADSVKGRFTISRDNAKNTVYLQMNSLKPEDTAVYYCAADLASYAYRYDYWGQGTQVTVSS`
Response: high polyreactivity

---

assay_notes: yeast display, Sf9 membrane polyspecificity reagent, FACS + sequencing; frameworks hold sequencing errors
readout_name: polyreactivity (PSR sort gate)

Solved cases (4 shown):
QVQLVESGGGLVQAGGSLRLSCAASGRIFYSNVMGWYRQAPGKERELVAAISGRTGGTYYADSVKGRFTISRDNAKNTVYLQMNSLKPEDTAVYYCAARVGWNKRRYDYWGQGTQVTVSS :: low polyreactivity
QVQLVESGGGLVQAGVSLRLSCAASGSTLYGYAMGWYRQAPGKERELVAAINTGGSTNYADSVKGRFTISRDNSKNTVYLQMNSLKPEDTAVYYCAASYSLTFWDKDDYWGQGTQVTVSS :: low polyreactivity
QVQLVESGGGLVQAGGSLRLSCAASGLTFDNNAMGWYRQAPGTERELVAAISYRGSSTYYADSVKGRFTISRDNAKNTVYLQMNSLKPEDTAVYYCAADVVDLGRFDYWGQRTQVTVSS :: low polyreactivity
QVQLVESGGGLVQAGGSLRLSCAASGIIFDGYTMGWYRQAPGTERELVAAITTSGTSTYYADSVKGRFTISRDNAKNTVYLQMNSLKPEDTAVYYCNAVRRGLPVVGAYDYWGQGTQVTVSS :: high polyreactivity

Prompt: Please give the measured polyreactivity (PSR sort gate) for this sequence: `QVQLVESGGGLVQAGGSLRLSCAASGFIFAWYAMGWYRQAPGKERELVASISVSDGSTYYADSVKGRFTISRDNAKNTVYLQMNSLKPEDTAVYYCAAEVSSDYYNSDYYWGQGTQVTVSS`
Response: low polyreactivity

Prompt: I am curious: what polyreactivity (PSR sort gate) value has been reported for `QVQLVESGGGLVQAGGSLRLICAASGSIFYEYAMGWYRQAPGKEREFVASISWSGGITSYADSVKGRFTISRDNAKNTVYLQMNSLKPEDTAVYYCAADFSWYLYDYDYWGQGTQVTVSS` ?
Response: low polyreactivity

Prompt: Any idea what polyreactivity (PSR sort gate) was measured for `QVQLVESGGGLVQAGGSLRLSCAPSGIILYRYAMGWYRQAPGKERELVAAITYSGGSTYYADSVKGRFTISRDNAKNSVYLQMNSLNPEDTAVYYCAAESRAGRYYVSKPSNYWGQGTQVTVSS` ?
Response: high polyreactivity

Prompt: Return reported polyreactivity (PSR sort gate); argument: `QVQLVESGGGLVQSGGSLRLSCAASGIIFSDYAMGWYRQAPGKERELVATITRSVRTSYADSVKGRFTISRDNAKNTVYLQMNSLKPEDTAVYYCNADVVGAVIAYDYWGQGTQVTVSS`
Response: low polyreactivity

Prompt: So what's the measured polyreactivity (PSR sort gate) for this one? `QVQLVESGGGLVQAGGSLRLSCAASGSTFYIYAMGWYRQAPGKERELVATITRAGTTNYADSVKGRFTISRDNAMNTVYLQMNSLKPEETAVYYCAKRKFRWPYQGSYSYIPFGYCGQGTQVTVSS`
Response: high polyreactivity

Prompt: Give its polyreactivity (PSR sort gate) value. Item: `QVQLVESGGGLVQAGGSLRLSCAASGRTFDSNAMGWYRQAPGKERELVAAISGSGDTTYYADSVKGRFTISRDNAKNTVYLQMNSLKPEDTAVYYCAARWGRSSGGGDYWGQGTQVTVSS`
Response: low polyreactivity

Prompt: I'd like to know its polyreactivity (PSR sort gate). The sequence in question is `QVQLVESGGGLVQAGGSLRLTSDASGFTFRSNAMGWYRQAPGKERELVAAITSRGGSTYYADSVKGRFTISRDYAKNTVYLQMNSLKPEDTAVYYCAADGRSRKFDYWGQGTQVTVSS`
Response: high polyreactivity

Prompt: What polyreactivity (PSR sort gate) value was documented for this sequence, `QVQLVESGGGLVQAGGSLRLSCAASGIIFSIYAMGLYRQAPGKERELVAVISRSSGSTYYADSVKGRFTISRYNAKNTVYLQMNSLKPEDTAVYYCAARKNRAYGYWGQGTQVTVSS` ?
Response: high polyreactivity
